Biological target: c-Met enzyme (Homo sapiens (Human))
Sequence (P08581 25-1390): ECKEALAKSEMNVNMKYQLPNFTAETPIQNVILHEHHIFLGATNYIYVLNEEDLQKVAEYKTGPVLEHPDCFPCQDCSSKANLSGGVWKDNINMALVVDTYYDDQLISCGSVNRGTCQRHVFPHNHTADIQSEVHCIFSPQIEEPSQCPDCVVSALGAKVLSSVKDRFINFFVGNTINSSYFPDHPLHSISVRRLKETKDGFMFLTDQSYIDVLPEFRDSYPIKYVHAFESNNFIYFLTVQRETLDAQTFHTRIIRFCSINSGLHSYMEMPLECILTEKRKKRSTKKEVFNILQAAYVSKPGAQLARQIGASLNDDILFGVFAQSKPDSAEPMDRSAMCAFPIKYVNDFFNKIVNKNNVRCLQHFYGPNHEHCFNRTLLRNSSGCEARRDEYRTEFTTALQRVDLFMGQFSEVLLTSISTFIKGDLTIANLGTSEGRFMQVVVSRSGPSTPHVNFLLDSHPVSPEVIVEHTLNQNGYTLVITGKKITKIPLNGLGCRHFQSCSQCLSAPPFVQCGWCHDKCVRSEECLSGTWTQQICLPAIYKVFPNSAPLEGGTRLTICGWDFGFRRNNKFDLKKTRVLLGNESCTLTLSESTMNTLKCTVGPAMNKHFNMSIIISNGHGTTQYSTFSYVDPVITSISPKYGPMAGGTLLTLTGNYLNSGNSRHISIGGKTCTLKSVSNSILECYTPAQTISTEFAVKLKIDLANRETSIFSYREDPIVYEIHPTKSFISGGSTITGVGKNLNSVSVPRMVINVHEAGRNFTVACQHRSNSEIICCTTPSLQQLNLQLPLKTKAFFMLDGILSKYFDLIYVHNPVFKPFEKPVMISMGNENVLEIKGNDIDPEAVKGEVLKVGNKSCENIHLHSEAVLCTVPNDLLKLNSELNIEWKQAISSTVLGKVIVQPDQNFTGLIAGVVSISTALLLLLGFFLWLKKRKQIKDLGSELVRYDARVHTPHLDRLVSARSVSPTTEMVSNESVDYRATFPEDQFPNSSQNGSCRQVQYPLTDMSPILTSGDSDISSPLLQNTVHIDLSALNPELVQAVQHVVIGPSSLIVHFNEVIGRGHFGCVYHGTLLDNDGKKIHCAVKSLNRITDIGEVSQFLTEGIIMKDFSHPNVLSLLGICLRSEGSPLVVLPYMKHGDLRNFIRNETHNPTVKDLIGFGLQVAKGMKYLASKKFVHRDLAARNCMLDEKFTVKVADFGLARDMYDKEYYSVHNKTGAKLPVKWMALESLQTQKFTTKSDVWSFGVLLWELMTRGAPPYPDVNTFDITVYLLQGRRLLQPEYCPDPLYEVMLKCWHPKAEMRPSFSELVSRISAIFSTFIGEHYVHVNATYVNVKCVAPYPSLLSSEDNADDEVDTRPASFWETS
Experiment: c-Met kinase inhibitory activity (DELFIA time-resolved fluorescence)
Type: biochemical
Details: c-Met kinase activity reduced to 50%
// pIC50 lookup, one value per entry
Note: pIC50 values are expressed as the negative base-10 logarithm of concentration in M.

Some molecules with recorded pIC50:
According to the records, this molecule N#Cc1cc(-c2cnc3nnn(C[C@@H]4CN(c5ncc(C6=CCN(CCO)CC6)cn5)CCO4)c3n2)ccc1F displays pIC50 of 8.52

According to the records, this molecule CN1CCN(CCOc2ccc(-c3cnc(N4CCO[C@H](Cn5nnc6ncc(-c7cnn(C)c7)nc65)C4)nc3)cc2)CC1 displays pIC50 of 8.22

According to the records, this molecule CN1CCN(C(=O)c2ccc(-c3cnc(N4CCC[C@H](Cn5nnc6ncc(-c7cnn(C)c7)nc65)C4)nc3)cc2)CC1 displays pIC50 of 8.22

Consider now this further molecule.
According to the records, this molecule Cn1cc(-c2cnc3nnn(C[C@@H]4CN(c5ncc(C6=CCN(CCO)CC6)cn5)CCO4)c3n2)cn1 displays pIC50 of 8.40
